Hey, just so you know, these numbers are from paper PMC7819943.

# ASSAY TARGET: OsSMF1 (Oryza sativa, UniProt Q6ZLB0 1-436)
# Sequence: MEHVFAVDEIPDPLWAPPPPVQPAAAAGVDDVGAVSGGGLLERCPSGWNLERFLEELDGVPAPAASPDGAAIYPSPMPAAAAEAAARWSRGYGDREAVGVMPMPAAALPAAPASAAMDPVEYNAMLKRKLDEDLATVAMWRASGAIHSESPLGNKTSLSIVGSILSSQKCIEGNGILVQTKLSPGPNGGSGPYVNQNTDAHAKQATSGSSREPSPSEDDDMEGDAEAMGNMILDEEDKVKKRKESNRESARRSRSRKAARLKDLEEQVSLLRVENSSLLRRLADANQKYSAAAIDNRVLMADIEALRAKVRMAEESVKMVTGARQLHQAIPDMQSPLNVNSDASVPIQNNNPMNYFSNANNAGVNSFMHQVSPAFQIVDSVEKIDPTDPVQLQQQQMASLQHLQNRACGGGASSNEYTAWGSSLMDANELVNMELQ
# TEST: protein-binding microarray (RPBM); PBS, 2% BSA, 51.3 ng/ul salmon testes DNA, 50 uM zinc acetate, 200 nM TF, 25 C, 1 h; high values mean tight binding
# APPLIED CONDITIONS: protein: recombinant; tags: N-terminal polyhistidine and DsRed monomer fusion (pET32a); chain copies: 2; label: CyDye5-dUTP incorporated in the synthesized complementary strand; 3' TTTTT single-stranded linker to array surface; dsDNA, one strand shown
The full ranking holds about 39,000 sequences; the median of “fluorescence intensity (a.u.)” is about 4,300, and the highest 2% start at about 39,000. This excerpt belongs to a sample that is enriched for the highest values.
MEASUREMENT TYPE: binding signal

The cases that follow already have their binding signal on record.
TTGTTAACTGCTGATGTGTGACCTGACTGTTAAAAGCTGCCGGAGTCACCTAGTGCAG    9170 fluorescence intensity (a.u.)
AACCCGGCGTTGGTGAGCTGTTCCATTGTGTCTATAGGCACGGAGTCACCTAGTGCAG    3210 fluorescence intensity (a.u.)
GGAAAGAGAAGAGAGGAAAGAGAGATGACGTGGACACCTGCGGAGTCACCTAGTGCAG    21100 fluorescence intensity (a.u.)
GTGTCATTTCATTCACTGGTCGGCTATATCTGGGCATATGCGGAGTCACCTAGTGCAG    53800 fluorescence intensity (a.u.)
TTGTCCGATGTGGCAGTTGAGTCAGCATGAGACCCACGTACGGAGTCACCTAGTGCAG    14200 fluorescence intensity (a.u.)

Lab note: measured binding signal of "CTCCACCACGAGTCACGAGTCACGACCACCTCTCCGGTCTCGGAGTCACCTAGTGCAG" was 4170 fluorescence intensity (a.u.)

Lab note: measured binding signal of "GATCTAGCCGACTCGATCCCGCCGATGACGATTCCATCCCCGGAGTCACCTAGTGCAG" was 39300 fluorescence intensity (a.u.)

Lab note: measured binding signal of "ATTGATGTGAAGAACAAATAGTCAATATTATTCTGTATATCGGAGTCACCTAGTGCAG" was 16900 fluorescence intensity (a.u.)

Lab note: measured binding signal of "GATATGATTATTTATTTCTTTAAATGAAAATCATGTGTAACGGAGTCACCTAGTGCAG" was 32500 fluorescence intensity (a.u.)

Lab note: measured binding signal of "CTCCTTGGCCCGTTTGGTCTCTGTGTGGGTTGGTAAAGACCGGAGTCACCTAGTGCAG" was 3330 fluorescence intensity (a.u.)

Lab note: measured binding signal of "AAATGCTGACTGGACTGCCACGTGTACGCCACGTAGACCACGGAGTCACCTAGTGCAG" was 45400 fluorescence intensity (a.u.)

Lab note: measured binding signal of "CCGAATCCGGCCACCCCGCCGCCTCCACGCGCATCACCGCCGGAGTCACCTAGTGCAG" was 3220 fluorescence intensity (a.u.)
